system: NCI/ADR-RES; test: NCI tumour cell line growth inhibition, 48 h
Activity calls are given as the source filed them. Rule as the data show it: active = GI50 up to about 1.1 µM and inactive = higher.
Classes used: yes (1) (active), no (0) (inactive)

>  <molecule>
N#Cc1c(-c2ccccc2)nc(-c2ccccc2)sc1=S

>  <assigned label>
no (0)

$$$$
>  <molecule>
CCOC(=O)CCC(NC(=O)c1ccc(Nc2nc3ccccc3nc2C(=O)OCC)s1)C(=O)OCC (configuration not stated)

>  <assigned label>
no (0)

$$$$
>  <molecule>
COc1ccc2[nH]c3c(C)c4cc[n+](C)cc4c(C)c3c2c1

>  <assigned label>
no (0)

$$$$
>  <molecule>
CN(C)CCCNC(=O)N/N=C/c1ccc(O)cc1

>  <assigned label>
no (0)

$$$$
>  <molecule>
O=C1NC(=O)/C(=C\c2ccncc2)N1

>  <assigned label>
no (0)

$$$$
>  <molecule>
Cn1c2c(c3ccccc31)CCN=C2C1CCCOC1=O (configuration not stated)

>  <assigned label>
no (0)

$$$$
>  <molecule>
BrC(c1cccc2ccccc12)c1cccc2ccccc12

>  <assigned label>
no (0)

$$$$
>  <molecule>
CSC1=NN(C(C)=O)C(C(OC(C)=O)C(OC(C)=O)C(OC(C)=O)C(COC(C)=O)OC(C)=O)S1 (configuration not stated)

>  <assigned label>
no (0)

$$$$
>  <molecule>
CC[C@@]1(OP(=O)(O)O)C(=O)OCc2c1cc1n(c2=O)Cc2cc3ccccc3nc2-1

>  <assigned label>
yes (1)

$$$$
>  <molecule>
C/C(=N\NC(=S)Nc1ccc([N+](=O)[O-])cc1)c1nc2cccnc2[nH]1

>  <assigned label>
no (0)

$$$$
>  <molecule>
O=P(OCc1ccccc1)(OCc1ccccc1)C(O)/C=C/c1ccccc1 (configuration not stated)

>  <assigned label>
no (0)

$$$$
>  <molecule>
Nc1ccccc1-n1c2c(c3ccccc3c1=O)C(=O)c1ccccc1-2

>  <assigned label>
no (0)

$$$$
>  <molecule>
N#CC(C#N)=C1/C(=C/C=C/C=C/C=C/c2ccc(N3CCCCC3)s2)S(=O)(=O)c2ccccc21

>  <assigned label>
no (0)

$$$$
>  <molecule>
O=[N+]([O-])c1ccc(C(=S)Nc2ccccc2)o1

>  <assigned label>
no (0)

$$$$
>  <molecule>
CC(C)(Cc1ccccc1)N1C(=O)N1C(C)(C)Cc1ccccc1

>  <assigned label>
no (0)

$$$$
>  <molecule>
O=C(CC(=O)N1N=C(N(c2ccccc2)c2ccccc2)CC1c1ccccc1)Nc1ccccc1 (configuration not stated)

>  <assigned label>
no (0)

$$$$
>  <molecule>
Cc1cn(C2C=CC(COP(=O)(OCc3ccc([N+](=O)[O-])o3)N(C)CCCCCl)O2)c(=O)[nH]c1=O (configuration not stated)

>  <assigned label>
no (0)

$$$$

Taken from ChEMBL document CHEMBL1201862.
